These entries and their values trace back to ChEMBL document CHEMBL1130478.

# System: Citrobacter freundii
# method-summary: In vitro antibacterial activity against C. freundii(GC 2211) following pre-incubation in mouse serum
# Format: functional

compound: CCOC(=O)OCOC(=O)C1=C(S[C@@H]2CCO[C@@H]2CNC(=O)OCOC(=O)C(C)(C)C)[C@H](C)C2[C@@H]([C@@H](C)O)C(=O)N12 (stereo partly drawn)
assayed-system: Citrobacter freundii
MIC [µg/mL]: 0.5
--
compound: CCOC(=O)OCOC(=O)C1=C(S[C@@H]2CCO[C@@H]2CNC(=O)OC(C)OC(C)=O)[C@H](C)C2[C@@H]([C@@H](C)O)C(=O)N12 (stereo partly drawn)
assayed-system: Citrobacter freundii
MIC [µg/mL]: 0.25
--
compound: CC(=O)OC(C)OC(=O)NC[C@H]1OCC[C@H]1SC1=C(C(=O)[O-])N2C(=O)[C@H]([C@@H](C)O)C2[C@H]1C.[Na+] (stereo partly drawn)
assayed-system: Citrobacter freundii
MIC [µg/mL]: 0.25
--
compound: CCOC(=O)OCOC(=O)C1=C(S[C@@H]2CCO[C@@H]2CN)[C@H](C)C2[C@@H]([C@@H](C)O)C(=O)N12.Cl (stereo partly drawn)
assayed-system: Citrobacter freundii
MIC [µg/mL]: 0.25
--
compound: CCOC(=O)OCOC(=O)C1=C(S[C@@H]2CCO[C@@H]2CNC(=O)OC(C)OC(=O)C(C)(C)C)[C@H](C)C2[C@@H]([C@@H](C)O)C(=O)N12 (stereo partly drawn)
assayed-system: Citrobacter freundii
MIC [µg/mL]: 0.5
--
compound: CCCC(=O)OCOC(=O)NC[C@H]1OCC[C@H]1SC1=C(C(=O)[O-])N2C(=O)[C@H]([C@@H](C)O)C2[C@H]1C.[Na+] (stereo partly drawn)
assayed-system: Citrobacter freundii
MIC [µg/mL]: 0.12
--
compound: CC(C)C(=O)OCOC(=O)NC[C@H]1OCC[C@H]1SC1=C(C(=O)[O-])N2C(=O)[C@H]([C@@H](C)O)C2[C@H]1C.[Na+] (stereo partly drawn)
assayed-system: Citrobacter freundii
MIC [µg/mL]: 0.25
--
compound: CCOC(=O)OCOC(=O)C1=C(S[C@@H]2CCO[C@@H]2CNC(=O)OCOC(=O)C(C)C)[C@H](C)C2[C@@H]([C@@H](C)O)C(=O)N12 (stereo partly drawn)
assayed-system: Citrobacter freundii
MIC [µg/mL]: 0.25

* * *

Catalogue of molecules with associated Relative hydrolysis
# assayed-system: Dipeptidase 1 (Sus scrofa) (UniProt P22412)
# Sequence (whole entry): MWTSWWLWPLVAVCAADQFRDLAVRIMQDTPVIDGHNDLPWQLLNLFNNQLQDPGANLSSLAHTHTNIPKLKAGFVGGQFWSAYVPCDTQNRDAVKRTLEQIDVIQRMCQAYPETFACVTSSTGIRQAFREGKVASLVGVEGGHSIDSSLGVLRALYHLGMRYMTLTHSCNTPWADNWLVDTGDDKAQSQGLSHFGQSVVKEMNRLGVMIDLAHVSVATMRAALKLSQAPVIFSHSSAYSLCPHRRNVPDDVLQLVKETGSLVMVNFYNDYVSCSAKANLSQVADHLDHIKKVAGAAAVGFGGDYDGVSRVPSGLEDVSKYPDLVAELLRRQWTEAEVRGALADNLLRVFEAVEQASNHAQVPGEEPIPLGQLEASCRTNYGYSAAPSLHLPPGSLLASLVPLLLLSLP
# method-summary: Relative hydrolysis by hog Dehydropeptidase
# Type: functional
readout-type: Relative hydrolysis

molecule: CCOC(=O)OCOC(=O)C1=C(S[C@@H]2CCO[C@@H]2CNC(=O)OC(C)OC(=O)C(C)(C)C)[C@H](C)C2[C@@H]([C@@H](C)O)C(=O)N12 (stereo partly drawn)
measured: 19

molecule: CCOC(=O)OCOC(=O)C1=C(S[C@@H]2CCO[C@@H]2CNC(=O)OCOC(=O)C(C)(C)C)[C@H](C)C2[C@@H]([C@@H](C)O)C(=O)N12 (stereo partly drawn)
measured: 20

molecule: CCOC(=O)OCOC(=O)C1=C(S[C@@H]2CCO[C@@H]2CNC(=O)OC(C)OC(C)=O)[C@H](C)C2[C@@H]([C@@H](C)O)C(=O)N12 (stereo partly drawn)
measured: 4.9
